kinase still bound, per cent of control values for the compounds below.
target: FGFR2 (human); experiment: KINOMEscan competition binding; details: compound 10.0 µM
Measured Quantity: kinase still bound, per cent of control (%)

>>> print(df.to_string())
                              sample_smiles  test_value
0  COC(=O)Nc1ccc(-c2nc(N3CCOCC3)c3cnn(C4CCN(C(=O)OC)CC4)c3n2)cc1         100
1  COc1ccc(-c2ccc3c(N4CCOCC4)nc(N4C[C@@H](C)O[C@@H](C)C4)nc3n2)cc1CO          99
2  CCC(=O)N1CCN(c2ccc(-n3c(=O)ccc4cnc5ccc(-c6cnc7ccccc7c6)cc5c43)cc2C(F)(F)F)CC1          55
3  CC(C)n1nc(-c2cc3cc(O)ccc3[nH]2)c2c(N)ncnc21         5.8

----------
target: PRKCZ (human); conditions: compound 1.0 µM
per cent of control values for the molecules below.
Measured Quantity: per cent of control

>>> df
                              sample_smiles    measured_quantity  test_value
0  CCC(=O)N1CCN(c2ccc(-n3c(=O)ccc4cnc5ccc(-c6cnc7ccccc7c6)cc5c43)cc2C(F)(F)F)CC1  per cent of control        121%
1  CC(C)n1nc(-c2cc3cc(O)ccc3[nH]2)c2c(N)ncnc21  per cent of control         91%
2  COC(=O)Nc1ccc(-c2nc(N3CCOCC3)c3cnn(C4CCN(C(=O)OC)CC4)c3n2)cc1  per cent of control         93%
3  COc1ccc(-c2ccc3c(N4CCOCC4)nc(N4C[C@@H](C)O[C@@H](C)C4)nc3n2)cc1CO  per cent of control         87%

----------
target: UniProt Q8IW41; conditions: compound 1.0 µM
Sequence (Q8IW41 whole entry, looked up): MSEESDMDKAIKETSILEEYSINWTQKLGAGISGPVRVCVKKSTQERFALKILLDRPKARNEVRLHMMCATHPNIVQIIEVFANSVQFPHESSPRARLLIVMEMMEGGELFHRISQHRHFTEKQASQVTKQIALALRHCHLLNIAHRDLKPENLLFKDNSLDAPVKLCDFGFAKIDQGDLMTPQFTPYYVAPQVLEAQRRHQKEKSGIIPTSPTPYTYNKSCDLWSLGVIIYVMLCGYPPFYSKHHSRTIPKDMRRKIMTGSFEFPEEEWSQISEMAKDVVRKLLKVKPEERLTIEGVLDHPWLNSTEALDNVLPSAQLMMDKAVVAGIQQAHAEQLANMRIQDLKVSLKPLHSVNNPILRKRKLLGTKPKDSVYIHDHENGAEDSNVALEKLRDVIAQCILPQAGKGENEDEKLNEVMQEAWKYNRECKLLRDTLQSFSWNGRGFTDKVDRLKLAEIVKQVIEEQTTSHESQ
per cent of control values for the compounds below.
Measured Quantity: per cent of control (%)

>>> df
                              sample_smiles  value_unit  test_value
0  COC(=O)Nc1ccc(-c2nc(N3CCOCC3)c3cnn(C4CCN(C(=O)OC)CC4)c3n2)cc1           %          98
1  CCC(=O)N1CCN(c2ccc(-n3c(=O)ccc4cnc5ccc(-c6cnc7ccccc7c6)cc5c43)cc2C(F)(F)F)CC1           %         118
2  CC(C)n1nc(-c2cc3cc(O)ccc3[nH]2)c2c(N)ncnc21           %          97
3  COc1ccc(-c2ccc3c(N4CCOCC4)nc(N4C[C@@H](C)O[C@@H](C)C4)nc3n2)cc1CO           %          67

----------
target: INSRR (human) (UniProt P14616); conditions: compound 10.0 µM
Sequence (P14616 whole entry, looked up): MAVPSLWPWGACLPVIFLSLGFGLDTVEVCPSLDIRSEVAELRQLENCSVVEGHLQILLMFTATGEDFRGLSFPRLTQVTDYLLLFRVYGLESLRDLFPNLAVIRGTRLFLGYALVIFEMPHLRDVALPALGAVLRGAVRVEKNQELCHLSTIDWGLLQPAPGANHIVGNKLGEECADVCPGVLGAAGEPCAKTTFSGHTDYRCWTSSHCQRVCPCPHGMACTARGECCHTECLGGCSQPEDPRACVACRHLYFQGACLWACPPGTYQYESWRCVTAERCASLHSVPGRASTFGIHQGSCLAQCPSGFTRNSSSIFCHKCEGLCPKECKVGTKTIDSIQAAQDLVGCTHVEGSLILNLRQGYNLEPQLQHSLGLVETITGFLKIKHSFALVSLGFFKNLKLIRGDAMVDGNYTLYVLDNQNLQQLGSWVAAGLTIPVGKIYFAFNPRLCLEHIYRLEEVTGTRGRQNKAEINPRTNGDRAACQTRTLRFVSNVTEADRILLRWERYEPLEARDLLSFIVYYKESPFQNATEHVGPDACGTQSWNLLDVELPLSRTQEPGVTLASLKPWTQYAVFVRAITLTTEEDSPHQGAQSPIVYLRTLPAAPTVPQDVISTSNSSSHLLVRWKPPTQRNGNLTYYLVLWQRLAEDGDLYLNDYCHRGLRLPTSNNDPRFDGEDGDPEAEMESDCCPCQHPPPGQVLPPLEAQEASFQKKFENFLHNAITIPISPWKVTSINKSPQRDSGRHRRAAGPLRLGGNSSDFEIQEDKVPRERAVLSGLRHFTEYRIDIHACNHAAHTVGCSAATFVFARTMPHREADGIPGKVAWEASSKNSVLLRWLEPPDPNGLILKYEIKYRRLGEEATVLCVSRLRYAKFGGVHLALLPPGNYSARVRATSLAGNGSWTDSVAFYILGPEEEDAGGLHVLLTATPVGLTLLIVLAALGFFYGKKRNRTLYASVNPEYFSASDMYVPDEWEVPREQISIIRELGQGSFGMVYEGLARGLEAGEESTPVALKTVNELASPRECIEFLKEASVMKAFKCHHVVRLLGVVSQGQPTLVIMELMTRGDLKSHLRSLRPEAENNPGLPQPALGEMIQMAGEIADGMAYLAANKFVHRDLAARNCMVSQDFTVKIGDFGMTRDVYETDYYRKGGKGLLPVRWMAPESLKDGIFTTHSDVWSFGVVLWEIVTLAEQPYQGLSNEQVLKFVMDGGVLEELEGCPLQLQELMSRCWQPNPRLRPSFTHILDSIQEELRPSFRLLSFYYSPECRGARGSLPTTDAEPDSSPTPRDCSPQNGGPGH
per cent of control values for the compounds below.
Measured Quantity: per cent of control (%)

                              sample_smiles  value_unit  test_value
0  COC(=O)Nc1ccc(-c2nc(N3CCOCC3)c3cnn(C4CCN(C(=O)OC)CC4)c3n2)cc1           %          99
1  CC(C)n1nc(-c2cc3cc(O)ccc3[nH]2)c2c(N)ncnc21           %          29
2  CCC(=O)N1CCN(c2ccc(-n3c(=O)ccc4cnc5ccc(-c6cnc7ccccc7c6)cc5c43)cc2C(F)(F)F)CC1           %          73
3  COc1ccc(-c2ccc3c(N4CCOCC4)nc(N4C[C@@H](C)O[C@@H](C)C4)nc3n2)cc1CO           %          71
